target: Recombinant human his-tagged IGF R extracellular domain protein (human) (UniProt P08069); experiment: SPR, Ab captured via anti-huIgG Fc, pH 7.4
# Kd per entry

Binder: VRDN-02019 (antibody, V domains shown) VH: QVQLQESGPGLVKPSETLSLTCTVSGYSITGGYLWNWIRQPPGKGLEWIGYISYDGTHNYKPSLKDRVTISRDTSKNQFSLKLSSVTAADTAVYYCARYGRVFFDYWGQGTLVTVSS VL: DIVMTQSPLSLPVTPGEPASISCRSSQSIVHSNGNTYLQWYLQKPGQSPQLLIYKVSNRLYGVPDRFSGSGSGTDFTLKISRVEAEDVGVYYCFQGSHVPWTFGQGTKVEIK
Kd: 0.549 nM
//
Binder: VRDN-02010 (antibody, V domains shown) VH: QVQLQESGPGLVKPSETLSLTCTVSGYSITGGYLHNWIRQPPGKGLEWIGYISYDGTNNYKPSLKDRVTISRDTSKNQFSLKLSSVTAADTAVYYCARYGRVFFDYWGQGTLVTVSS VL: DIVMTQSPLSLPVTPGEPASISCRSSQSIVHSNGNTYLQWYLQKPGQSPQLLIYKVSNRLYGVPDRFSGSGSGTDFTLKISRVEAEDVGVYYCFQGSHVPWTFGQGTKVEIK
Kd: 6.95 nM

// next item, Kd requested
Return reported Kd; argument: VRDN-02018 (antibody, V domains shown) VH: QVQLQESGPGLVKPSETLSLTCTVSGYSITGGYLWNWIRQPPGKGLEWIGYISYDGHNNYKPSLKDRVTISRDTSKNQFSLKLSSVTAADTAVYYCARYGRVFFDYWGQGTLVTVSS VL: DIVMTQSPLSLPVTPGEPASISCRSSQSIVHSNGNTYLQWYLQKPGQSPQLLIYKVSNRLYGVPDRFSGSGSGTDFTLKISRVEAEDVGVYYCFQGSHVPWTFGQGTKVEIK 0.734 nM
